- TARGET_OR_SYSTEM: human α2δ-1 subunit of Cav2.2 calcium channel (Homo sapiens (Human))
- Sequence (P54289 25-1103): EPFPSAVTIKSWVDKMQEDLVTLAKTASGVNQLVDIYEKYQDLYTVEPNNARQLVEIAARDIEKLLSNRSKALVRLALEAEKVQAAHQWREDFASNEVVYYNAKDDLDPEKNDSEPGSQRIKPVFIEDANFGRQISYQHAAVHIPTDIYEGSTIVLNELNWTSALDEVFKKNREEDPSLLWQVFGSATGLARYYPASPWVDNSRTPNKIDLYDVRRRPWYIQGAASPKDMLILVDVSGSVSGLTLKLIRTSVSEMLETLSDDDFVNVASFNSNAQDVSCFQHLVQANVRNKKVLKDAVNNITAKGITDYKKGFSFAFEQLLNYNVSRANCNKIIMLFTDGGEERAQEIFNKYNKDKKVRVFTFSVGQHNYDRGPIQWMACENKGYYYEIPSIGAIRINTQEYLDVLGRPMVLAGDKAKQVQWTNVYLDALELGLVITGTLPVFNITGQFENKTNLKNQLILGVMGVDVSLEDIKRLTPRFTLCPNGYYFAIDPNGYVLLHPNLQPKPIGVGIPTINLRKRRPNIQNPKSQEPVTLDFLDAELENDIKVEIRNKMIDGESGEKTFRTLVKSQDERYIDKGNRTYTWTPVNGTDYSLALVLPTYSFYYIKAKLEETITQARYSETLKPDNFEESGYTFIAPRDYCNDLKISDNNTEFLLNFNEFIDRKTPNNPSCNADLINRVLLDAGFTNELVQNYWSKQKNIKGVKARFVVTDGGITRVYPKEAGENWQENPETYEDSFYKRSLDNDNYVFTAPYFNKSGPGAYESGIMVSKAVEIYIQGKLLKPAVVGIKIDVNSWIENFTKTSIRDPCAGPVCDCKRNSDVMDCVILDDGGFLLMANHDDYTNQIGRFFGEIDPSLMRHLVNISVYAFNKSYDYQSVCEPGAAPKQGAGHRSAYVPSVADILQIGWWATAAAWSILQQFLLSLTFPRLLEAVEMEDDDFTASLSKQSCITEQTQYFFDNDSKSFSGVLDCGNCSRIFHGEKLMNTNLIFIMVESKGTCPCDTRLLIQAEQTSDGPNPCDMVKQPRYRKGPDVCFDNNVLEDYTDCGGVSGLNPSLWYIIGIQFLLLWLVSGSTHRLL
- ASSAY_NOTES: Binding assay to human α2δ-1 subunit of Cav2.2 calcium channel ([3H]-Gabapentin)
- PROTOCOL_CONDITIONS: binding to α2δ-1, [3H]-Gabapentin; read-out: Ki (nM) α2δ-1
Listed next: entries and their corresponding Ki.

Reference set (5 entries):
CCNc1ncc2c(n1)N(C)CCN(c1cccc(-n3cnc(CNC)c3)c1)C2=O = 100 to 500 nM
CN(CC[C@@H](OCc1cccc(N2CCN(C)c3ncncc3C2=O)c1)c1ccccc1)C(=O)OC(C)(C)C = > 3000 nM
CCc1ncc2c(n1)N(C)CCN(c1cccc(CO[C@H](CCNC)c3ccccc3)c1)C2=O = 500 to 3000 nM
CNCCC(Oc1cccc(N2CCN(C)c3nc(SC)ncc3C2=O)c1)c1ccccc1 (stereo not shown) = 500 to 3000 nM
CCNc1ncc2c(n1)N(C)CCN(c1cccc(Cn3cc(CN(C)C(=O)OC(C)(C)C)nn3)c1)C2=O = > 3000 nM

Turning now to a further compound:
Query: Given the compound `CCNc1ncc2c(n1)N(C)CCN(c1cccc(-n3cc(CN(C)C(=O)OC(C)(C)C)cn3)c1)C2=O` , write its reported Ki.
Result: > 3000 nM
